Ref: PubChem BioAssay

# TARGET_UNDER_TEST: Alpha-2C adrenergic receptor (Homo sapiens)
# PROCEDURE_SUMMARY: compounds altering alpha2C-coupled GIRK flux – cell-based, HEK293 alpha2C/GIRK1/2, thallium flux, primary screen (AID 624);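 further: slope of fluorescence ratio to pre-addition baseline per second over 15 to 24 s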
# STUDY_CONDITIONS: thallium flux BTC fluorescence, at 10 µM, actives lie on both sides
PROPERTY: slope
// keep it numeric: no unit symbol after the value

Use these answered entries as a reference point.
(Q) Find slope for `C/C(N)=C(/C#N)C(=O)CSc1nnc(Nc2cccc(C)c2)s1` on Alpha-2C adrenergic receptor (Homo sapiens) and write it down.
(A) 0.00453

(Q) Find slope for `COc1ccc(N2CCN(C(=O)Cc3ccc(-n4c(=O)[nH]c5ccccc5c4=O)cc3)CC2)cc1` on Alpha-2C adrenergic receptor (Homo sapiens) and write it down.
(A) 0.00662

Next:
(Q) Find slope for `COCCn1nnnc1CN(CCCN1CCOCC1)Cc1cc2c(C)ccc(C)c2[nH]c1=O` on Alpha-2C adrenergic receptor (Homo sapiens) and write it down.
(A) 0.00345

(Q) Find slope for `O=C(NCN1CCCCC1)c1cccnc1` on Alpha-2C adrenergic receptor (Homo sapiens) and write it down.
(A) 0.00701

(Q) Find slope for Cc1ccnc2c(N3C(=O)C4C5C=CC(C5)C4(C)C3=O)cccc12 (stereo not given) on Alpha-2C adrenergic receptor (Homo sapiens) and write it down.
(A) 0.00676

---

# TARGET_UNDER_TEST: Alpha-2C adrenergic receptor (Homo sapiens) (UniProt P18825)
# Sequence (P18825 whole entry, looked up): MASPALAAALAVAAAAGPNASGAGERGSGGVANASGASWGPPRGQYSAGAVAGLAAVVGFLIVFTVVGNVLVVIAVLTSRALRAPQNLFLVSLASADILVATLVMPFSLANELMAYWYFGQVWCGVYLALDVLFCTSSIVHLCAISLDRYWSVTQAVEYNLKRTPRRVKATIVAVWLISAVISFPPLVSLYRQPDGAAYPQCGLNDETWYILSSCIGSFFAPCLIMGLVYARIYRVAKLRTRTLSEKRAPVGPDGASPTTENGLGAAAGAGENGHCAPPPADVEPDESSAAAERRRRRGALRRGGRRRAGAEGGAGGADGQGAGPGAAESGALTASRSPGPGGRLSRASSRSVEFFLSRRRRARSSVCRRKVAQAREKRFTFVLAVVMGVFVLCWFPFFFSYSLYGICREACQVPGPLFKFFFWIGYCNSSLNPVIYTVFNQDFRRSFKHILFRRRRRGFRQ
# PROCEDURE_SUMMARY: compounds altering alpha2C-coupled GIRK flux – cell-based, HEK293 alpha2C/GIRK1/2, thallium flux, primary screen (AID 624);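 further: slope of fluorescence ratio to pre-addition baseline per second over 15 to 24 s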
# STUDY_CONDITIONS: thallium flux BTC fluorescence, at 10 µM, actives lie on both sides
compounds and their reported slope
// keep it numeric: no unit symbol after the value

Use these answered entries as a reference point.
(Q) Find the measured slope of COC(=O)CN1C(=O)CC(C)(C)S(=O)c2ccccc21 (stereo unspecified) and report it.
(A) 0.00765

(Q) Find the measured slope of `CCOC(=O)c1cc2sccc2n1Cc1ccccc1` and report it.
(A) 0.00361

(Q) Find the measured slope of CC(=O)c1ccc(OCC(O)CN2CCN(CCO)CC2)cc1 (stereo unspecified) and report it.
(A) 0.00738

(Q) Find the measured slope of `COc1ccc(C(=O)N2CCN(c3nc4cc(C)ccc4cc3C#N)CC2)c(OC)c1` and report it.
(A) 0.00559

(Q) Find the measured slope of `COc1ccccc1-n1c(=O)[nH]c2c(C(N)=O)nc(CC(C)C)nc21` and report it.
(A) 0.00821

// next item, slope requested
(Q) Find the measured slope of `Nn1c(SCc2csc(-c3ccccc3)n2)nnc1-c1cccs1` and report it.
(A) 0.00728

---

# TARGET_UNDER_TEST: Voltage-gated potassium channel subunit beta-2 (Rattus norvegicus)
# PROCEDURE_SUMMARY: enhancers of rat Kvbeta2 NADPH turnover – biochemical, NADPH fluorescence, primary screen (AID 623);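 further: fluorescence intensity change per second fitted from 20 to 320 s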
# STUDY_CONDITIONS: Recombinant KvBeta, NADPH fluorescence decrease slope, 10 min; at 10 µM
The source made the active and inactive calls.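 Rule for the calls: active = NADPH fluorescence slope more negative than the mean of all samples by about 3 SD, 99.7% confidence; inactive = the rest.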
Give your call using only these classes: class 1 for active, class 0 for inactive

Solved cases (5 shown):
(Q) Short answer needed: outcome of this test for `CCN(c1c(C)n(C)n(-c2ccccc2)c1=O)S(C)(=O)=O` ?
(A) class 0

(Q) Short answer needed: outcome of this test for `N#Cc1ccc(COC(=O)Cn2nnc(-c3ccccc3)n2)cc1` ?
(A) class 0

(Q) Short answer needed: outcome of this test for `Cc1nnc(SCc2cn3ccsc3n2)n(N)c1=O` ?
(A) class 0

(Q) Short answer needed: outcome of this test for `CCN(CC)S(=O)(=O)c1ccc2[nH]cc(C(=O)NCCC3=CCCCC3)c(=O)c2c1` ?
(A) class 0

(Q) Short answer needed: outcome of this test for `CCCSc1nc2c(cnn2-c2ccc(C)cc2)c(=O)[nH]1` ?
(A) class 0

Next:
(Q) Short answer needed: outcome of this test for `COc1ccc(N2CCN(Cc3nc(-c4ccc(Cl)cc4Cl)no3)CC2)cc1` ?
(A) class 0

(Q) Short answer needed: outcome of this test for `Cn1c(SCc2c(F)cccc2Cl)nnc1-c1cccs1` ?
(A) class 0

---

# PROCEDURE_SUMMARY: inhibitors of TNFa-induced NFkB p65 translocation, primary screen, imaging, HUVEC, MLSMR starter and 10KST1 sets (AID 438);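 further: compound added about 3h40 before a 20 min TNFalpha stimulation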
# STUDY_CONDITIONS: HUVEC TNFa-induced p65 nuclear translocation; measured here: nuclei count (cytotoxicity indicator), at 2.08 µM
cell count of 700 or higher: 1 (yes). Under 700: 0 (no).

Solved cases (2 shown):
(Q) Test whether the molecule `O=C(c1ccco1)N1CCN(S(=O)(=O)c2ccc(Oc3ccccc3)cc2)CC1` records cell count of 700 or higher.
(A) 0 (no)

(Q) Test whether the molecule Fc1ccc(NCc2nnc(SCc3nnc(-c4ccccc4)o3)n2CC2CCCO2)cc1 (stereo not drawn) records cell count of 700 or higher.
(A) 0 (no)

Next:
(Q) Test whether the molecule O=C(O)CC1=C(O)C(=O)N(c2ccccc2)C1c1ccccc1 (stereo not drawn) records cell count of 700 or higher.
(A) 0 (no)

(Q) Test whether the molecule `CCOC(=O)c1ccc(N2Cc3cc(C)c(C)cc3C2)cc1O` records cell count of 700 or higher.
(A) 1 (yes)

(Q) Test whether the molecule COc1ccc(NC(=O)CC2Sc3ncnn3C2=O)cc1 (stereo not drawn) records cell count of 700 or higher.
(A) 0 (no)

---

compounds and their reported inhibition
# PROCEDURE_SUMMARY: blockers of RIG-like receptor reporter activation – cell-based, Sendai virus stimulus, luciferase, 10K MLSCN set, TLR/RLR signaling modifier project, primary screen (AID 602276);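 further: firefly luciferase from ISG56 promoter only with Renilla not read in this screen; 0% = Sendai virus plus DMSO and 100% = medium plus DMSO without virus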
# STUDY_CONDITIONS: HEK293 RL24 IRF3 luciferase reporter, at 10 µM, stronger effect = higher value
Respond with the bare value in %.

(Q) Find the measured inhibition of `COc1ccc(CCNc2oc(COc3ccccc3Cl)nc2C#N)cc1OC` and report it.
(A) 1.77

Next:
(Q) Find the measured inhibition of `COc1ccc(-c2noc(-c3ccccc3C(=O)Nc3cccnc3)n2)cc1OC` and report it.
(A) 1.54

(Q) Find the measured inhibition of `CCOC(=O)c1nc2sc3c(c2c(=O)[nH]1)CCCC3` and report it.
(A) 13.1

(Q) Find the measured inhibition of `Cc1ccc(Cn2c(=N)c(C(=O)NCc3ccco3)cc3c(=O)n4ccccc4nc32)cc1` and report it.
(A) -2.87

(Q) Find the measured inhibition of `COc1cc2c(cc1OC)CN(C(=O)CSc1nc3[nH]ncc3c(=O)n1-c1ccccc1)CC2` and report it.
(A) 11

(Q) Find the measured inhibition of `CCOC(=O)CCc1c(C)nc2cc(-c3ccc(F)cc3)[nH]n2c1=O` and report it.
(A) -3.01

(Q) Find the measured inhibition of `O=C(O)c1ccc2c(c1)C(=O)N(c1ccc(Cl)cn1)C2=O` and report it.
(A) 10.9

(Q) Find the measured inhibition of `O=C(Cn1nc(-c2ccc3c(c2)OCCO3)ccc1=O)Nc1ccc(N2CCOCC2)cc1` and report it.
(A) 2.21

(Q) Find the measured inhibition of `Cc1ccc(C)c(N(CC(=O)NCc2ccco2)C(=O)CCC(=O)Nc2ccccn2)c1` and report it.
(A) 15.1

(Q) Find the measured inhibition of `c1cnc2c(SCc3ccc(-c4nnco4)cc3)cccc2c1` and report it.
(A) -53.9

(Q) Find the measured inhibition of `N#CCC(=O)N1CCn2c1nc1ccccc12` and report it.
(A) 11.2

(Q) Find the measured inhibition of `CC1CCN(C(=O)CCNS(=O)(=O)c2ccccc2)CC1` and report it.
(A) -23.4

---

# TARGET_UNDER_TEST: Voltage-gated potassium channel subunit beta-2 (Rattus norvegicus)
# PROCEDURE_SUMMARY: inhibitors of rat Kvbeta2 reductase activity – biochemical, NADPH fluorescence, primary screen (AID 622);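 further: slope of raw intensity against log time taken from 70 to 1610 s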
# STUDY_CONDITIONS: recombinant KvBeta, 4-cyanobenzaldehyde reduction, at 10 µM, stronger effect = higher value
Response field class: enum, chosen by comparing fluorescence slope against lower bin = under -0.6, middle bin = from -0.6 up to -0.4, upper bin = -0.4 and over

Solved cases (4 shown):
(Q) Classify this molecule: `Cc1ccc(S(=O)(=O)N2CCC(C(=O)N3CCC[C@H]3C(=O)NCc3ccccc3)CC2)cc1`
(A) middle bin

(Q) Classify this molecule: CC(C)CCN1CC(C(=O)NCc2ccccc2)CC1=O (centres undefined)
(A) upper bin

(Q) Classify this molecule: CCOc1ccc(NC(=O)C2CC(=O)N(C(C)C)C2)cc1 (centres undefined)
(A) lower bin

(Q) Classify this molecule: COc1ccc2c(c1OC)C(=O)OC2CC(=O)c1ccc(O)cc1 (centres undefined)
(A) middle bin

Now for another entry.
(Q) Classify this molecule: CCN1CCN(C(c2ccc(F)cc2)c2nnnn2Cc2cccs2)CC1 (centres undefined)
(A) upper bin
